target entity: T1, Suc-AAPR-pNA
T1 chain: AAPR
conditions: scale: relative to the substrate with the highest activity
attribute measured: relative activity (initial increase in OD405)
Give the figure only, with no unit attached.

Query :: What does the record list as relative activity (initial increase in OD405) for Serine protease from Nocardiopsis sp NRRL 18262 (protein) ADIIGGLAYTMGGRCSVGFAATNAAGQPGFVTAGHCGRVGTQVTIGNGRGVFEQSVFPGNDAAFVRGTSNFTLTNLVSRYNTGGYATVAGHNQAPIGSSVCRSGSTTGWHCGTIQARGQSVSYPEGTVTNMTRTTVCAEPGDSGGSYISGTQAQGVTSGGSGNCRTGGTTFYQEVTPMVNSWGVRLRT ?
Result :: 0.172

Query :: What does the record list as relative activity (initial increase in OD405) for Serine protease bppB from Bacillus pumilus JA16 (protein) VVIGDDGRTKVTNTRVAPYNSIAYITFGGSSCTGTLIAPNKILTNGHCVYNTATRSYSAKGSVYPGMNDSTAVNGSANMTEFYVPSGYINTGASQYDFAVIKTDTNIGNTVGYRSIRQVTNLTGTTIKISGYPGDKMRSTGKVSQWEMSGPVTREDTNLAYYTIDTFSGNSGSAMLDQNQQIVGVHNAGYSNGTINGGPKATAAFVEFINYAKAQ ?
Result :: 0

Query :: What does the record list as relative activity (initial increase in OD405) for Subtilisin 309 variant from Bacillus clausii (protein) AQSVPWGIERVQAPAAHNRGLTGSGVKVAVLDTGISTHPDLRIRGGASFVPGEPSTQDGNGHGTHVAGTIAALDNSIGVLGVAPSEALYAVKVLGASGSGSVSSIAQGLEWAGNNGMHVANLSLGSPSPSATLEQAVNSATSRGVLVVAASGNSGAGSISYPARYANAMAVGATDQNNNRASFSQYGAGLDIVAPGVNILSTWPGSTYASLNGTSMATPHVAGAAALVKQKNPSWSNVQIRNHLKNTATSLGDTWEYGSGLVNAEAATR ?
Result :: 0.0002
